- system.name: JAK2 (Homo sapiens (Human))
- assay.details: Jak Biochemical HTRF Assay, JAK2
- condition.set: HTRF biochemical assay, GST-tagged catalytic domain; top concentration tested […]
Assign classes using reported IC50 values and the ranges bin 1 = under 9 nM, bin 2 = from 9 nM up to 200 nM, bin 3 = 200 nM and over, please.

COc1cc(Nc2nn(C3(CC#N)CCN(C(=O)OCC(F)F)CC3)cc2C(N)=O)ccn1: bin 3
COCCOC(=O)N1CCC(CC#N)(n2cc(C(N)=O)c(Nc3ccccc3)n2)CC1: bin 2
Cc1ncncc1N1CCC(CC#N)(n2cc(C(N)=O)c(Nc3ccc(F)cc3)n2)CC1: bin 2

Here is another compound to look at.
In: Where would N#CCC1(n2cc(C(N)=O)c(Nc3ccnc(F)c3)n2)CCC(Nc2ccc(F)cc2F)CC1 (stereo not shown) [Example 40-33] land among the classes by reported IC50?
Out: bin 1

====

- system.name: JAK2 (Homo sapiens (Human), UniProt O60674)
- Sequence (O60674 849-1124): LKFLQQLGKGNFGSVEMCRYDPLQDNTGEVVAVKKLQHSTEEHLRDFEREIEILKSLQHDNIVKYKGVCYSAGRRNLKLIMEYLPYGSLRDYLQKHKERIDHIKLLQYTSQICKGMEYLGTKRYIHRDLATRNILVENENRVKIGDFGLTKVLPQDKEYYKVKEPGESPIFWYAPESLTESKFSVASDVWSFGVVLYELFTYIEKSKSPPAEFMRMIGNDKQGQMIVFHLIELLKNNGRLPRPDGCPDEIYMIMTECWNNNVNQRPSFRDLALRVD
- assay.details: Jak Biochemical HTRF Assay, JAK2
- condition.set: HTRF biochemical assay, GST-tagged catalytic domain; top concentration tested […]
IC50 for assorted compounds
State just the number; it will be interpreted in nM.

CCc1cccc(C)c1NC(=O)N1CC(CC#N)(n2cc(C(N)=O)c(Nc3ccccc3)n2)C1: 1190

In: // IC50 lookup, key: `COc1ccc(-c2cccc(Nc3nn(C4(CC#N)CCN(C(=O)OC(C)(C)C)CC4)cc3C(N)=O)c2)cc1`
Out: 958

In: // IC50 lookup, key: `C[C@@H](OC(=O)N1CCC(CC#N)(n2cc(C(N)=O)c(Nc3ccc(F)cc3)n2)CC1)C(F)(F)F`
Out: 30

In: // IC50 lookup, key: `N#CCC1(n2cc(C(N)=O)c(Nc3ccc(F)cc3)n2)CCN(CCF)CC1`
Out: 59

====

- system.name: JAK1 (Homo sapiens (Human), UniProt P23458)
- Sequence (P23458 875-1153): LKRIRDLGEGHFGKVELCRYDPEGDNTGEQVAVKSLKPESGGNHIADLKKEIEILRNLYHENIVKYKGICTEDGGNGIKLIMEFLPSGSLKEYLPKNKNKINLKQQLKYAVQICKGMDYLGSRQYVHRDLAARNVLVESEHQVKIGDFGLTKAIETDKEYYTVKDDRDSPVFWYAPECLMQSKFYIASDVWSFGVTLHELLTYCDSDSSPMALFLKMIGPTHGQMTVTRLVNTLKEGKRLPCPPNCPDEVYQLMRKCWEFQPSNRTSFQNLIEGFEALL
- assay.details: Jak Biochemical HTRF Assay, JAK1
- condition.set: HTRF biochemical assay, GST-tagged catalytic domain; top concentration tested […]; read-out: JAK1 IC50
test.readout: pIC50
# pIC50: negative log10 of molar concentration; output just the value

Known results for molecules:
CS(=O)(=O)c1ccc(Nc2nn([C@]3(CC#N)C[C@@H](C#N)C3)cc2C(N)=O)cc1 [Example 2-22]: 7.89
N#CCC1(n2cc(C(N)=O)c(Nc3ccnc(F)c3)n2)CCC(NCc2ccc(F)cc2)CC1 (centres unmarked) [Example 41-25]: 7.57
COCCOC(=O)N1CCC(CC#N)(n2cc(C(N)=O)c(Nc3ccc(F)cc3)n2)CC1 [Example 30-48]: 8.40
Cc1cc(CN2CCC(CC#N)(n3cc(C(N)=O)c(Nc4ccnc(F)c4)n3)CC2)no1 [Example 22-27]: 8.22

In: API: value(readout= pIC50, system= JAK1 (Homo sapiens (Human), UniProt P23458), query= C[C@H](OC(=O)N1CCC(CC#N)(n2cc(C(N)=O)c(Nc3ccnc(F)c3)n2)CC1)C1CC1 [Example 30-77] )
Out: 9.70

====

- system.name: JAK1 (Homo sapiens (Human))
- assay.details: Jak Biochemical HTRF Assay, JAK1
- condition.set: HTRF biochemical assay, GST-tagged catalytic domain; top concentration tested […]; read-out: JAK1 IC50
Just a reminder that ties go to rule not met: only IC50 strictly below 0.006 µM counts as rule met.

Use these answered entries as a reference point.
N#CCC1(n2cc(C(N)=O)c(Nc3ccccc3)n2)CCN(C(=O)C2CCCO2)CC1 (centres unmarked) [Example 34-6]: rule met
N#CCC1(n2cc(C(N)=O)c(Nc3ccnc(F)c3)n2)CCN(Cc2cncc(F)c2)CC1 [Example 22-38]: rule met
N#CCC1(n2cc(C(N)=O)c(Nc3ccc(F)cc3)n2)CCN(c2ccncc2)CC1 [Example 3-46]: rule met

In: Does the reported IC50 of the following molecule sit strictly below 0.006 µM? N#CCC1(n2cc(C(N)=O)c(Nc3ccccc3)n2)CN(C(=O)NC2CCCCC2)C1 [Example 38-2]
Out: rule not met

In: Does the reported IC50 of the following molecule sit strictly below 0.006 µM? CC(C)(C)COC(=O)N1CC(CC#N)(n2cc(C(N)=O)c(Nc3ccccc3)n2)C1 [Example 30-56]
Out: rule not met

In: Does the reported IC50 of the following molecule sit strictly below 0.006 µM? N#CCC1(n2cc(C(N)=O)c(Nc3ccnc(F)c3)n2)CCC(NCc2ccccc2C#N)CC1 (centres unmarked) [Example 41-27]
Out: rule not met

In: Does the reported IC50 of the following molecule sit strictly below 0.006 µM? CS(=O)(=O)c1ccc(Nc2nn(C3(CC#N)CN(C(=O)OC4CCOC4)C3)cc2C(N)=O)cc1 (centres unmarked) [Example 30-75]
Out: rule not met

====

IC50 for assorted molecules
- system.name: UniProt:P23458
- assay.details: Jak Biochemical HTRF Assay, JAK1
- condition.set: HTRF biochemical assay, GST-tagged catalytic domain; top concentration tested […]; read-out: JAK1 IC50

Known results for molecules:
CC(=O)N1CC(CC#N)(n2cc(C(N)=O)c(Nc3ccccc3)n2)C1 [Example 32]: 94 nM
Cc1cc(Cl)ccc1NC(=O)N1CC(CC#N)(n2cc(C(N)=O)c(Nc3ccccc3)n2)C1 [Example 38-14]: 25 nM
Cc1cccc(Nc2nn(C3(CC#N)CCN(C(=O)OC(C)(C)C)CC3)cc2C(N)=O)n1 [Example 13-2]: 13 nM

In: // IC50 lookup, key: CC(C)(C)OC(=O)N1CCC(CC#N)(n2cc(C(N)=O)c(Nc3ccnc(C#N)c3)n2)CC1 [Example 9-33]
Out: 0.2 nM

====

- system.name: JAK2 (Homo sapiens (Human), UniProt O60674)
- assay.details: Jak Biochemical HTRF Assay, JAK2
- condition.set: HTRF biochemical assay, GST-tagged catalytic domain; top concentration tested […]
test.readout: IC50
Include the unit right after the number.

CC(C#N)C1(n2cc(C(N)=O)c(Nc3ccc(F)cc3)n2)CCN(C(=O)OC(C)(C)C)CC1 (stereo not shown) [Example 5-1]: 162 nM
N#CCC1(n2cc(C(N)=O)c(Nc3ccccc3)n2)CCN(Cc2cccnc2)CC1 [Example 21-2]: 11 nM
CC(C)(C)OC(=O)N1CCC(CC#N)(n2cc(C(N)=O)c(Nc3cccc(-c4ccccc4)c3)n2)CC1 [Example 15-3]: 1050 nM

The record that follows has no IC50 shown yet.
In: // IC50 lookup, key: N#CCC1(n2cc(C(N)=O)c(Nc3ccnc(F)c3)n2)CCC(NCc2cccc(Cl)c2)CC1 (stereo not shown) [Example 41-23]
Out: 1430 nM

====

pIC50 for assorted molecules
- system.name: JAK2 (Homo sapiens (Human))
- assay.details: Jak Biochemical HTRF Assay, JAK2
- condition.set: HTRF biochemical assay, GST-tagged catalytic domain; top concentration tested […]
# pIC50: negative log10 of molar concentration; output just the value

Known results for molecules:
N#CCC1(n2cc(C(N)=O)c(Nc3ccccc3)n2)CCN(C(=O)c2cccc3ccccc23)CC1: 6.46
CC(C)(C)OC(=O)N1CCC(CC#N)(n2cc(C(N)=O)c(Nc3cncc(F)c3)n2)CC1: 7.80
CC(C)(C)OC(=O)N1CCC(CC#N)(n2cc(C(N)=O)c(Nc3ccc(S(N)(=O)=O)cc3)n2)CC1: 9.00
N#CCC1(n2cc(C(N)=O)c(Nc3ccccc3)n2)CCN(C(=O)c2cccs2)CC1: 8.10

In: API: value(readout= pIC50, system= JAK2 (Homo sapiens (Human)), query= `N#CCC1(n2cc(C(N)=O)c(Nc3ccccc3)n2)CCN(C(=O)c2ccccc2)CC1` )
Out: 7.03

In: API: value(readout= pIC50, system= JAK2 (Homo sapiens (Human)), query= N#CCC1(n2cc(C(N)=O)c(Nc3ccnc(F)c3)n2)CCC(Nc2cccc(F)c2)CC1 (centres unmarked) [Example 40-64] )
Out: 8.70

In: API: value(readout= pIC50, system= JAK2 (Homo sapiens (Human)), query= `CC(C)(C)OC(=O)N1CC(CC#N)(n2cc(C(N)=O)c(Nc3ccccc3)n2)C1` )
Out: 7.24

In: API: value(readout= pIC50, system= JAK2 (Homo sapiens (Human)), query= `CC(C)(C)OC(=O)N1CC2(C1)CC(CC#N)(n1cc(C(N)=O)c(Nc3ccccc3)n1)C2` )
Out: 5.83

In: API: value(readout= pIC50, system= JAK2 (Homo sapiens (Human)), query= `Cc1cccc(NC(=O)N2CC(CC#N)(n3cc(C(N)=O)c(Nc4ccccc4)n3)C2)c1` )
Out: 7.11

====

- system.name: JAK1 (Homo sapiens (Human))
- assay.details: Jak Biochemical HTRF Assay, JAK1
- condition.set: HTRF biochemical assay, GST-tagged catalytic domain; top concentration tested […]; read-out: JAK1 IC50
test.readout: log10 of IC50 (log10 of the value in nM)
Remember, log10 of IC50, in nM.

Known results for compounds:
COCCOC(=O)N1CCC(CC#N)(n2cc(C(N)=O)c(Nc3ccc(S(=O)(=O)C(F)(F)F)cc3)n2)CC1: -0.52
N#CCC1(n2cc(C(N)=O)c(Nc3ccnc(F)c3)n2)CCC(Nc2cccc(F)c2)CC1 (stereo not shown) [Example 40-55]: 1.11
N#CCC1(n2cc(C(N)=O)c(Nc3ccnc(F)c3)n2)CCN(Cc2cccnc2F)CC1: -1.00
N#CCC1(n2cc(C(N)=O)c(Nc3ccccc3)n2)CCN(C(=O)c2ccccc2Cl)CC1: 1.11
CC(C)COC(=O)N1CC(CC#N)(n2cc(C(N)=O)c(Nc3ccccc3)n2)C1: 1.15
N#CCC1(n2cc(C(N)=O)c(Nc3ccnc(F)c3)n2)CCC(Nc2ccc(Cl)cc2)CC1 (stereo not shown) [Example 40-45]: 1.58
N#CCC1(n2cc(C(N)=O)c(Nc3ccc(F)cc3)n2)CCN(C(=O)OCC(F)F)CC1: -0.30
N#CCC1(n2cc(C(N)=O)c(Nc3ccc(F)cc3)n2)CCN(Cc2ccon2)CC1: 0.30

In: // log10 of IC50 lookup, key: `CC(C)(C)OC(=O)N1CCC(CC#N)(n2cc(C(N)=O)c(Nc3ccnc(F)c3)n2)CC1`
Out: -0.70
